// data source = the supplement of paper PMC6555819

Test system: RARb:RXRa (NR concentration 270 nM, RXRa partner concentration 90 nM)
Test: PBM binding z-score (relative to random genomic background probes); higher = stronger binding; sequences stand for … in GC…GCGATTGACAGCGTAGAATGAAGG
Lab note: anything with PBM binding z-score at or over 2 counts as Met; the rest go in Not met.

residue-string	class-label
CCGAGTAGGTTATGGGGTATTCAGGCAACGGTGA	Not met
AGTCAACGTTCAGGACGAGGTAACGTAAAGCACG	Not met
TCGAGTAGGTTACCAATGGGGCTTTCAGCTTTCT	Not met
CGTCCAAGGTCAAAGGCCAGTGAAGAGATGACGG	Met
TCTTGTAGATCAAAGGTGAAGAAAGCCGAAGCCT	Not met
TCATATAGGTAAACAGGTGATAGTCCGTAAGTTA	Not met
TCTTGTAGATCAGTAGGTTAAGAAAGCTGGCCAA	Not met
CCTAGCAGGCCAGGGTCGCTCAAGCATTTCGCTT	Not met
TAGCGTAGGTCATGCGGGCCAGTATAGTGTCGGC	Met
TCTTGTAGTTCAATAGAGGTTAAGAAAGTGCGCT	Met
AGGACGAGGGCAATGAGTTGATAGCACGGGTGGC	Met
TCGAGCAGGTTAGGGGCATTCAGAATGGCGTCGA	Not met
CCTGCTAGGTCAATTGTCAGCTAAAGCAGCTCGC	Met
CCTTACGGGTTACGAGGTTATAGCACGACGAGCG	Not met
GCTAGCAGGCCATTTGGGTCACTCACTGACGGGC	Not met
CGAACTAGGTCATTGACAGCACAGTGAATAGTAA	Met
CTCGAAAGGGCGGTTGAGGTGAGTATACGGATAA	Not met
GCTGCTTGGTCAACTGATGGTCAGCTAAAGCTCG	Not met
CCTGCTAGGTCAATGGTCACCTAAAGCAGCTCGC	Met
ATCGCAAGGTCGAGGTGAGTATAGAGAAAGGGAA	Met
TGAATGAGGTTATAAGATCCGGGAACGTTGCAAA	Not met
GCAGACAGGTGATACGCAGGTAACTCAGGGTGGC	Not met
GCTATTAGTTGAAATGGCAACCGAATGATTCTCG	Not met
TCTTGTAGATCAGCAGGTTAAGAGAGCTGGCCAA	Not met
GCAGACAGGTGAAACGCAGGTAGCTCAGGGTGGC	Not met
ATCGAAAGGTCGAGAGGTGAGTATACAGAAAGGC	Met
GCTCGGAGGACAAGGTCAAAGCTTTGTCCGTAGA	Met
CCTTACGGGTCCCGAGGTTATAGCACGACGAGCG	Not met
CAAACTAGGTCACGAAAGGTCACAGTCGAATGAC	Met
CGAACTAGGTCATTGACAGGACAGCGAATAGTAA	Met
CGTCCAAGGTCACAGGTCAGTGAAGAGATGACGG	Met
CGAACTAGGACAGAACAGGACAGTGAAGGATGAT	Not met
GCTCGGAGGACAAGGTCAGATCTTTGTCCGTAGA	Met
GCTAACAGGCCATTTGGGTCACTCAATGACGGGC	Not met
TCTATTAGTTGATTAGGGAAACCGAAACAGCGGA	Not met
CCTACTGGGTCATCAGGTCATTGATATCAACGTT	Met
GCTATTAGTTGAAAGTGCAACCGAATGATTCTCG	Not met
CCGACTAGGTTATGGGGCATTCAGGCAACGGTGA	Not met
ATATGTAGGTTATCGGGTCATTCTGTTTGCGCAT	Met
ACAGACAGGTGATGAAGGTAACTCACGCTATCAT	Not met
CTCGAAAGGTCGTGCTAAGGTGAGTATACCAAAC	Met
CTCGAAAGGTCGTGCTCAGGGGAGTATACCAAAC	Met
GCTAGCAGGCCATTTGGGTCACTCATTGACGGGC	Not met
AGAATGAGGTTAGGATCAGGGAAACAGAATACAT	Not met
GCTGCTAGGTCAACTAATGGTCAGCTAAAGCTCG	Met
TGTCGAAGTTCAAAGGTAACGTAAGTATCCACAC	Met
TCTGTTAGTTGATTAGGGCAACCGAAACAGCGGA	Not met
CCTTTCGGGTCACTGACAGGTTATAGCATTTGGA	Met
CGAACGAGGGCATGAGTTGATAGCAAATGCCGAT	Met
CCGACTGGGGCATCAGGTTACCATAAGCCAGCCC	Not met
CGTCCAAGGTCAAAGCTAGGTCAGTGAAAGCATT	Met

====

System: LXRb homodimer (NR concentration 270 nM)
Experiment: PBM binding z-score (relative to random genomic background probes); higher = stronger binding; sequences stand for … in GC…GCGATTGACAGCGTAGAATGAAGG

residue-string	assay-target	PBM binding z-score
CAAACTAGGTCAAGGTCAAAATCGGTTTGTGCCA	LXRb homodimer (NR concentration 270 nM)	1.58
TCGAGTAGGTTAGTCGGGTCATTCAGCCAACATA	LXRb homodimer (NR concentration 270 nM)	-0.941
ATACCAAGGTGATCGTGAGGCCGTTGATACTAAC	LXRb homodimer (NR concentration 270 nM)	-0.198
AATACAGGGTCAATAGGCCAGAGTAGGTACGAAT	LXRb homodimer (NR concentration 270 nM)	0.669
ATATGTAGGTTACATCCGGGTCATTGAGGCTATG	LXRb homodimer (NR concentration 270 nM)	1.01
ACAGACAGGTGATAAAGGTAACTCAGGCTATCAT	LXRb homodimer (NR concentration 270 nM)	-0.23

====

Overview of reported PBM binding z-score across a group of sequences:
Tested on: RXRa homodimer (NR concentration 180 nM)
Assay: PBM binding z-score (relative to random genomic background probes); higher = stronger binding; sequences stand for … in GC…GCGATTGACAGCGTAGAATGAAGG

residue-string	PBM binding z-score
CCTCGGAGGACAGCAGGAGGTCAGAGCTGCCAGA	1.56
TCTTGTAGATCGAAGGTTAAGAAAGCCGAAGCCT	0.859
ATCGAAAGGTCGACGAGGTGATTATACACCGTTT	4.35
CCGACTGGGGCAATGTTACCATAACGCACAGCCA	-0.0938
TAGCCTATGTCATTGGGCCAGTATAGTACGCATC	0.472
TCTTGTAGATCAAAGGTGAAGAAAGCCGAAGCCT	1.75
ATCTCTGGGTAAAGATAGTTCAGTGAATGCAAAT	0.123
ATATGTAGCTTACATCCGGGTCATTCAGGCTATG	1.9
TGAATGAGGTTAATGATCAGGGAACGTGGCGTCG	1.67
CCTACTGGCCCATCAGGTCATTGATATCAACGTT	1.13
GCATATAGGTAATACAAGGTGAATGTCCGATTGT	0.689
TAAATGAGGTTAAAGATCAGGGAACGTGGCGTCG	4.01

====

Quick list: PBM binding z-score per entry.
Test system: VDR homodimer (NR concentration 270 nM)
Assay: PBM binding z-score (relative to random genomic background probes); higher = stronger binding; sequences stand for … in GC…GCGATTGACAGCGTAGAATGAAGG
test-readout: PBM binding z-score

residue-string	value
TAGCCTACGTCATTGGGCCAGTATAGTACGCATC	-0.718
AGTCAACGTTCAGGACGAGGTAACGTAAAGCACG	-0.0352
ACTAGTTGGTCAGCTGAGGCCACACACAATTCGG	0.0276
CGTCCAAGGTCAAAGGTCAGTCAAGAGATGACGG	3.58
ATCTCTGGGTAACAAGTTCAGTGAAAGAGAGGAC	2.71
GCTCGGAGGACAAGATCAGAGCTTTGTCCGTAGA	-0.587
GCTTACGGTTCAAAGGTTATAGCATGAATAGAAT	2.52
CCTACTGGGCCACGAACGGTCATTGATTCAGTGA	-0.169
CTTCCAAGGTCAGCAGGTCAGTGAAAGCGACGTG	1.68
CCTGCTAGGACATGGTCAGCTAATCTACAGTATG	-0.547
ACAGACTGGTGAGTGAAGGTAACTCAGCTGGACG	-0.299
TCGAGTAGGTTAGTCGGGGCATTCGGCCAACATA	0.124
CAAACTAGGTCAAAGGGCAAAGTCGAGCCAACCA	1.06
TCTCGGAGGACTCGAAAGGTCAGAGCTCGACATC	0.189
GCTATTAGTTGAAAGGACAACCGAATGATTCTCG	0.311
GCAAACAGGTGAAACGCAGGTAACTCAGGGTGGC	-0.658
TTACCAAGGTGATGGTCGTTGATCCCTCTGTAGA	-0.232
AGCTCTAGGTAACCAAGTTCAGTGAATGCCGAAC	2.43
ATCTCTATGTAAAAGTTCAGTGAATCCCGAGGAT	1.6
GCAGACAGGTGAAACGCAGGTAACTGAGGGTGGC	-0.727
CATAGTTGGTCAGGAGGTCACACACCGGATATGA	3.09
CCAACTGGGCCAAGGTCATTGATCAGTCAAAGCA	2.57
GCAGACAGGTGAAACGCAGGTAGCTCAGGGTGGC	-0.785
AGAACGAGGGAAATGAGTTGATAGCACGGGTGGC	0.141
CCTACTCGGCCAAAGGTCATTGATTCCAATGCTC	2.63
CGAACTAGGCCAAGGACAGTGAATCTCCGCACGC	-0.0931
